Each recorded value in this set is attributed to paper PMC5023007.

Molecular target: UniProt:Q13822
Experiment: ATX activity assay with pNP-TMP substrate
Format: biochemical
Conditions: read-out: pNP-TMP Inhibition (%)
readoutType: inhibition at 10 µM (%)

Worked examples follow.
| molecule | inhibition at 10 µM, % |
| --- | --- |
| O=C(O)c1ccc(N2CCN(C(=O)COc3cccc(F)c3)CC2)cc1 | -36.5 |
| O=C(COc1ccc(F)cc1)N1CCN(c2ccc([N+](=O)[O-])cc2)CC1 | -12.1 |
| O=C(COc1cccc(F)c1)N1CCN(c2ccc([N+](=O)[O-])cc2)CC1 | -14.1 |

(A) O=C(COc1ccccc1F)N1CCN(c2ccc([N+](=O)[O-])cc2)CC1
(B) O=C(COc1ccccc1F)N1CCN(c2cccc([N+](=O)[O-])c2)CC1
Of the two listed items, A and B , which carries the larger inhibition at 10 µM figure? Answer by quoting the chosen item's label.
B
(B: -14.7%, A: -22.7%)

* * *

Target: ATX (Homo sapiens, UniProt Q13822)
Assay: ATX activity assay with FS-3 substrate
Type: biochemical
Conditions: read-out: FS-3 Inhibition (%), 10 μM compound, 10 nM ATX, 1 μM FS-3
readoutType: inhibition at 10 µM (%)

| molecule | valueUnit | inhibition at 10 µM |
| --- | --- | --- |
| O=C(CCCOc1ccc(Cl)cc1Cl)N1CCN(c2ccc([N+](=O)[O-])cc2)CC1 [GRI 392104] | % | 65.5 |
| CCCCCCCCCCCCCC(=O)NC(CCC(=O)O)C(=O)O (stereo not shown) [GRI 96880] | % | 54.1 |
| COc1ccc2c(c1)C(NCc1cc(OC)c(OC)cc1N)CCO2 (stereo not shown) [GRI 93694] | % | 48 |
| CC(=O)OC1(C(=O)COC(=O)c2ccco2)CC2CCC3C4C=CC(=O)CC4(C)CCC3C2(C)C1 (stereo not shown) [GRI 519441] | % | 59.7 |

* * *

Molecular target: ATX (Homo sapiens, UniProt Q13822)
Assay: ATX activity assay with pNP-TMP substrate
Format: biochemical
Settings: read-out: pNP-TMP Inhibition (%)
readoutType: inhibition at 10 µM (%)

| compound | inhibition at 10 µM / % |
| --- | --- |
| O=C(COc1ccc(Cl)cc1Cl)N1CCN(c2ccc([N+](=O)[O-])cc2)CC1 [Analog 32] | -14.9 |
| O=C(COc1ccccc1Cl)N1CCN(c2ccc([N+](=O)[O-])cc2)CC1 [Analog 23] | -11.9 |
| O=C(O)c1ccc(N2CCN(C(=O)COc3ccccc3F)CC2)cc1 [Analog 57] | -12 |
| O=C(O)c1ccc(N2CCN(C(=O)COc3cccc(C(F)(F)F)c3)CC2)cc1 [Analog 61] | -11.4 |
| CC(=O)OC1(C(=O)COC(=O)c2ccco2)CC2CCC3C4C=CC(=O)CC4(C)CCC3C2(C)C1 (centres unmarked) [GRI 519441] | -45.4 |
